target: Endothelial PAS domain-containing protein 1 (Homo sapiens, UniProt Q99814)
Sequence (Q99814 whole entry, the tested form may be a part): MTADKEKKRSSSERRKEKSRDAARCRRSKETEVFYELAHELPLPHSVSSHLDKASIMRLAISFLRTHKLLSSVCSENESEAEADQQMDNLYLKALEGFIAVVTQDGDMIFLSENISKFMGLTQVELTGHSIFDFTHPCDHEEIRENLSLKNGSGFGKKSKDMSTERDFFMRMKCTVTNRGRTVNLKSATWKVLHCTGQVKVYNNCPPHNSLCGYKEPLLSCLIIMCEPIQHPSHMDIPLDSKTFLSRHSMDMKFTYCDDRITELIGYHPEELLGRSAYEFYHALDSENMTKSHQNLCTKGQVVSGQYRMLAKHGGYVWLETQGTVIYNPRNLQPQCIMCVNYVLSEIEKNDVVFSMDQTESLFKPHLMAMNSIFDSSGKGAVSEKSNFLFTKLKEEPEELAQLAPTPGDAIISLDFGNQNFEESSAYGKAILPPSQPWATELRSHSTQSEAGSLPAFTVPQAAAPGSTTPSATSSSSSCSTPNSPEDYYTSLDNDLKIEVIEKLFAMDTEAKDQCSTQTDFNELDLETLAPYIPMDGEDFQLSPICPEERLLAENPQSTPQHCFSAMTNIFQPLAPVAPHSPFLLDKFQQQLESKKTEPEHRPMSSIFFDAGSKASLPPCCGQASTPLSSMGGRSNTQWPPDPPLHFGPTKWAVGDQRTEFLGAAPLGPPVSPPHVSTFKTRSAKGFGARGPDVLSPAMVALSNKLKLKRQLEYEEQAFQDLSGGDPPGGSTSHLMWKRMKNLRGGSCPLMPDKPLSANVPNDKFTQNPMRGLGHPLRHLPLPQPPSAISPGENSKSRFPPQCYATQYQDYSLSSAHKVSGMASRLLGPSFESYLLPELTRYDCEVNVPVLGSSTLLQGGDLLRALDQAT
pIC50: −log10 of the molar value.

{"CHEMICAL STRUCTURE": "Cn1nc(C(F)(F)F)cc1-c1sc(S(C)(=O)=O)c2c1CCC(F)(F)[C@H]2O", "pIC50": "< 6.00"}

Value source: ChEMBL document CHEMBL4616683
